- study-system: adenylyl cyclase activity in the striatum (type 5 adenylyl cyclase) (Mus musculus, UniProt P84309)
- Construct: IC50 on adenylyl cyclase activity in the striatum; other: WT; estimated from 10, 50 and 100 μM; other: 100 μM compound
- Sequence (P84309 whole entry): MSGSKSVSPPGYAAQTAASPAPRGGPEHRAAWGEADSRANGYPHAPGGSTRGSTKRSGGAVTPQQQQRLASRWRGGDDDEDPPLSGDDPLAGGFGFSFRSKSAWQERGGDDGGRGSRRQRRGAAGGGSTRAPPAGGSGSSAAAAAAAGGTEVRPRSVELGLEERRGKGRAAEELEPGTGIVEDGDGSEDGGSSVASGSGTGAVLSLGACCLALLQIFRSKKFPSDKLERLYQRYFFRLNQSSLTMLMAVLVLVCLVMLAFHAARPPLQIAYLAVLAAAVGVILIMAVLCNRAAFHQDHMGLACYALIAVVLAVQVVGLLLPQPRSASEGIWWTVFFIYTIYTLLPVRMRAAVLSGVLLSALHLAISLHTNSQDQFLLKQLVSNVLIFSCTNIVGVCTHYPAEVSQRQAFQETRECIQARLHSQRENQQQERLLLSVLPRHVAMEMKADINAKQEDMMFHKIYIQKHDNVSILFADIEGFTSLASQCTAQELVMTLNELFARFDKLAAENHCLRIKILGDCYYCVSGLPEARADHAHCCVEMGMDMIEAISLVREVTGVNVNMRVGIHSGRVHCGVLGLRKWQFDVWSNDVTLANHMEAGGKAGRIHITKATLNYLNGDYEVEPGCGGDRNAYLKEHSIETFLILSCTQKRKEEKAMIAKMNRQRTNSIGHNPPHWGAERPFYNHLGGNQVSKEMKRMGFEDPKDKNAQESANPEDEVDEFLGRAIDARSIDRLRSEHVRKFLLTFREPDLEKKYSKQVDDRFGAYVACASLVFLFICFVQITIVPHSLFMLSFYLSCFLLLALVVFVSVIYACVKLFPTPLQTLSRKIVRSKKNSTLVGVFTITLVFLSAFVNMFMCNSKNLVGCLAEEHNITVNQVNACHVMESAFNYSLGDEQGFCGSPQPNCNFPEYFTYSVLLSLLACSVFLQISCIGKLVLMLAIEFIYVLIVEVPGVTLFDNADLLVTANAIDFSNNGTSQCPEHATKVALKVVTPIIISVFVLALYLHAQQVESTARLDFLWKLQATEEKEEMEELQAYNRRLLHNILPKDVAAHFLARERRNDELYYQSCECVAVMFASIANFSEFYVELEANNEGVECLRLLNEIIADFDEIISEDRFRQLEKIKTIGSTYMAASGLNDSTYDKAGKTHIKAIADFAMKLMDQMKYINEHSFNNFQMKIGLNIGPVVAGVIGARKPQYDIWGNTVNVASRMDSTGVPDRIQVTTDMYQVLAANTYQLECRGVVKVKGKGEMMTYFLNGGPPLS
- protocol-details: Membrane adenylyl cyclase assay, WT striatal membrane, forskolin-stimulated
- Format: biochemical
- run-parameters: 100 μM compound; 50 μM forskolin; WT striatal membrane; read-out: forskolin-stimulated adenylyl cyclase activity (relative to activity without inhibitor = 100)
measure: activity at 100 µM

Fill blank: measured activity at 100 µM of the compound CN(C)CC(=O)OCC1OC(n2cnc3c(N)ncnc32)C(O)C1O (stereo not shown) is ____.
~24.9%

Try the compound CN(C)CC(=O)OC1C(CO)OC(n2cnc3c(N)ncnc32)C1O (stereo not shown)
~25.1%

How about CN(C)CC(=O)OC1C(O)C(CO)OC1n1cnc2c(N)ncnc21 (stereo not shown) ?
~24.5%

Another: Nc1ncnc2c1ncn2[C@@H]1O[C@H](CO)[C@@H](O)[C@@H]1O [vidarabine, reference compound]
~17.3%
